system: A549; assay: NCI tumour cell line growth inhibition, 48 h
The source made the active and inactive calls. No stated cut-off is given here; in the data, active = GI50 up to about 1.1 µM and inactive = higher.

- molecule: "COCCN1C2=CCCCC2=Nc2c(N)nc(N)nc21"
  GI50: "> 100 µM (inactive)"
- molecule: "COc1cccc(N2C(=O)[C@H]3CC(C)c4c([nH]c5ccccc45)[C@H]3C2=O)c1 (some centres undefined)"
  GI50: "41.3 µM (inactive)"
- molecule: "C=CC(=O)N1C/C(=C\\c2ccc(N(C)C)cc2)C(=O)/C(=C/c2ccc(N(C)C)cc2)C1"
  GI50: "> 100 µM (inactive)"
- molecule: "CC(=O)C1Cn2c(nc3ccccc32)C[Se]1 (centres undefined)"
  GI50: "19.8 µM (inactive)"
- molecule: "Cc1cc(S(=O)(=O)Nc2nc3ccccc3c(=O)n2N)c(S)cc1Cl"
  GI50: "31.1 µM (inactive)"
- molecule: "COC(=O)/C=C/[C@H]1[C@H](C)N1S(=O)(=O)c1ccc(C)cc1 (some centres undefined)"
  GI50: "> 100 µM (inactive)"
- molecule: "O/N=C1\\CCc2nonc2\\C1=N/Nc1ccccc1"
  GI50: "> 100 µM (inactive)"
- molecule: "CC(C)(CN1CCCCC1)C(/C=C/c1ccccc1)=N\\NC(=O)N/N=C(/C=C/c1ccccc1)C(C)(C)CN1CCCCC1"
  GI50: "2.43 µM (inactive)"
- molecule: "Cc1cccc(C(O)c2cccnc2)c1O (centres undefined)"
  GI50: "> 100 µM (inactive)"
- molecule: "Cn1nc(-c2ccccc2)c(C(=O)/C=C/c2ccc(F)cc2)c(N2CCCC2)c1=O"
  GI50: "15.1 µM (inactive)"
- molecule: "Cc1nc2c3c(ncn2n1)Oc1c(c(-c2ccccc2)nn1-c1ccccc1)C3c1ccc(Cl)cc1 (centres undefined)"
  GI50: "> 100 µM (inactive)"
- molecule: "COc1cc(/C=C2\\C[C@H]3[C@@H]4CC=C5C=C(N6CCCC6)CC[C@]5(C)[C@H]4CC[C@]3(C)C2=O)cc(OC)c1OC"
  GI50: "5.24 µM (inactive)"
- molecule: "CNC(=O)C(C)C1C(=O)/C(=C(O)/C=C\\C(C)=C\\C(C)C2OC3(C)OC(C=CC34CO4)C2C)C(=O)N1C1CCC(O)C(C)O1 (centres undefined)"
  GI50: "> 100 µM (inactive)"
- molecule: "Cc1oc2c(c1C)S(=O)(=O)C(C#N)=CN2"
  GI50: "> 100 µM (inactive)"
- molecule: "c1ccc(C2=NN(c3ccccc3)C3(S2)SC(c2ccccc2)(c2ccccc2)c2ccccc23)cc1 (centres undefined)"
  GI50: "> 100 µM (inactive)"
- molecule: "Cn1c(=O)c2c([nH]/c(=N/N=C/c3ccccc3C(=O)O)n2C)n(C)c1=O"
  GI50: "> 100 µM (inactive)"
- molecule: "COCC[N+](CCNC(=O)c1cccc2c(N)c3cccc(C)c3nc12)(CCOC)Cc1ccc([N+](=O)[O-])cc1"
  GI50: "13.5 µM (inactive)"
- molecule: "O=[N+]([O-])C(/C=C(\\Cl)[N+](=O)[O-])=C(Nc1ccccc1)Nc1ccccc1"
  GI50: "17 µM (inactive)"
- molecule: "CCOc1ccc2nc(NC(=O)/C(CC(=O)CC(C3=C(O)c4ccccc4CC3=O)c3ccccc3)=N\\O)sc2c1 (centres undefined)"
  GI50: "> 100 µM (inactive)"

Reference source for all entries: ChEMBL document CHEMBL1201862
